Let's look at some molecules and their measured Ki.
Target: Integrin alpha-V/beta-3 (Homo sapiens, UniProt P05106+P06756)
Sequence (P05106 27-788 limits assumed): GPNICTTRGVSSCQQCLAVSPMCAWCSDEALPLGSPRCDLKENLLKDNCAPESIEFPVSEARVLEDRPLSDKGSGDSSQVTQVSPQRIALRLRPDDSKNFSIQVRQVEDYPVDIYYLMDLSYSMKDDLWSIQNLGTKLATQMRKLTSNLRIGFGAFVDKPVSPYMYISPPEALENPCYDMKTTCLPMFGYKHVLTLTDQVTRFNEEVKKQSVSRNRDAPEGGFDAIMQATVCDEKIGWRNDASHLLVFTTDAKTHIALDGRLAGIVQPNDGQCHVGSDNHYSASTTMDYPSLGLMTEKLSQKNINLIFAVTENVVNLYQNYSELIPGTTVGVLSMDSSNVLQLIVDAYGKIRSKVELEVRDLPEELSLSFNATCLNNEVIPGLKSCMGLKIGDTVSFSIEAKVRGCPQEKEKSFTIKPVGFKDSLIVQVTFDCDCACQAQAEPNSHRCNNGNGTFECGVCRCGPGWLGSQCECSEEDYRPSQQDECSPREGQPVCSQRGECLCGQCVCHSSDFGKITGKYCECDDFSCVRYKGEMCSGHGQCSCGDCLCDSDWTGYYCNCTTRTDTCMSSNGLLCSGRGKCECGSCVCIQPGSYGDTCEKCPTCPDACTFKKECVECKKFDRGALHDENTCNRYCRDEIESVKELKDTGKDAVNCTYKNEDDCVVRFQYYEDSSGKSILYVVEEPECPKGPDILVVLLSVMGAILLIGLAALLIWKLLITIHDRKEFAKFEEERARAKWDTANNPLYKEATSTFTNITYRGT
Sequence (P06756 31-889 limits assumed): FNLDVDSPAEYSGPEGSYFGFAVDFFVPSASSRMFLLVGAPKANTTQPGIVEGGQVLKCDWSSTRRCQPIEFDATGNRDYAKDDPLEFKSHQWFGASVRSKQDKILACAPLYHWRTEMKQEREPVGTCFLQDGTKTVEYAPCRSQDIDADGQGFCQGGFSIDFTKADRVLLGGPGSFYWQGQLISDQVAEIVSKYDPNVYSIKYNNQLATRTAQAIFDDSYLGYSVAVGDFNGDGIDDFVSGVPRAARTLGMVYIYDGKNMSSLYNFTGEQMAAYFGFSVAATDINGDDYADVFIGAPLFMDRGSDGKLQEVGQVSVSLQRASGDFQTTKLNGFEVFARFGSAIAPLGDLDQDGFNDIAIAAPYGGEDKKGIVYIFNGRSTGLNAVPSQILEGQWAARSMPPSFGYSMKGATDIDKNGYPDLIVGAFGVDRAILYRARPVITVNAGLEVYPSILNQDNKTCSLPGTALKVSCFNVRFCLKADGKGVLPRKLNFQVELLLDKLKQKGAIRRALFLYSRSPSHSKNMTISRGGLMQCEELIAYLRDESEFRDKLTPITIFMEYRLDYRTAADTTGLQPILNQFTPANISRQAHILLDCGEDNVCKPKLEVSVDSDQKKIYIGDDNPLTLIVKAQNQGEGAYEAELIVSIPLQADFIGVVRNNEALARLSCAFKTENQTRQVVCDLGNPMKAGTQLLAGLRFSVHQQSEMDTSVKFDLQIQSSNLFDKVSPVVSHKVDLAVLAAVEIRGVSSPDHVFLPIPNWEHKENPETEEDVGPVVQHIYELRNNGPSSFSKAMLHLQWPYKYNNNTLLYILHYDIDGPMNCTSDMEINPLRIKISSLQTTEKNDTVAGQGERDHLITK
Sequence (P06756 891-1048 limits assumed): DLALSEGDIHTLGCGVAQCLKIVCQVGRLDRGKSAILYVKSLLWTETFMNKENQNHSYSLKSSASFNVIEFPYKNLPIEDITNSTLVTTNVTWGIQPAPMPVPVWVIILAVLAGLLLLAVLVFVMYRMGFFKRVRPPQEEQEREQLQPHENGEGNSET
Assay: Affinity for vitronectin receptor, integrin alphaV-beta3
Assay type: protein-complex assay
Answer format: numeric, nM implied, no suffix.

>>> reading("CN1Cc2cc(C(=O)Nc3nc4ccccc4[nH]3)ccc2NC(CC(=O)O)C1=O (centres undefined)")
1150
>>> reading("CC(=O)C[C@@H]1NC(=O)[C@@H](Cc2ccccc2)NC(=O)[C@H](C(C)C)NC(=O)[C@H](CCCN=C(N)N)NC(=O)CNC1=O")
10
>>> reading("N=C(N)c1cccc(NC(=O)c2ccc3c(c2)CN(CCc2ccccc2)C(=O)C(CC(=O)O)N3)c1 (centres undefined)")
510

Let us examine a further case.
Challenge: Which Ki is reported with Integrin alpha-V/beta-3 (Homo sapiens, UniProt P05106+P06756) for this entry: N=C(N)c1ccc(NC(=O)c2ccc3c(c2)CN(CCc2ccccc2)C(=O)C(CC(=O)O)N3)cc1 (centres undefined) ?
Response given: 56000

* * *

Quick list: Ki per entry.
Target: Integrin alpha-IIb/beta-3 (Homo sapiens, UniProt P05106+P08514)
Sequence (P08514 32-887 limits assumed, one chain of several): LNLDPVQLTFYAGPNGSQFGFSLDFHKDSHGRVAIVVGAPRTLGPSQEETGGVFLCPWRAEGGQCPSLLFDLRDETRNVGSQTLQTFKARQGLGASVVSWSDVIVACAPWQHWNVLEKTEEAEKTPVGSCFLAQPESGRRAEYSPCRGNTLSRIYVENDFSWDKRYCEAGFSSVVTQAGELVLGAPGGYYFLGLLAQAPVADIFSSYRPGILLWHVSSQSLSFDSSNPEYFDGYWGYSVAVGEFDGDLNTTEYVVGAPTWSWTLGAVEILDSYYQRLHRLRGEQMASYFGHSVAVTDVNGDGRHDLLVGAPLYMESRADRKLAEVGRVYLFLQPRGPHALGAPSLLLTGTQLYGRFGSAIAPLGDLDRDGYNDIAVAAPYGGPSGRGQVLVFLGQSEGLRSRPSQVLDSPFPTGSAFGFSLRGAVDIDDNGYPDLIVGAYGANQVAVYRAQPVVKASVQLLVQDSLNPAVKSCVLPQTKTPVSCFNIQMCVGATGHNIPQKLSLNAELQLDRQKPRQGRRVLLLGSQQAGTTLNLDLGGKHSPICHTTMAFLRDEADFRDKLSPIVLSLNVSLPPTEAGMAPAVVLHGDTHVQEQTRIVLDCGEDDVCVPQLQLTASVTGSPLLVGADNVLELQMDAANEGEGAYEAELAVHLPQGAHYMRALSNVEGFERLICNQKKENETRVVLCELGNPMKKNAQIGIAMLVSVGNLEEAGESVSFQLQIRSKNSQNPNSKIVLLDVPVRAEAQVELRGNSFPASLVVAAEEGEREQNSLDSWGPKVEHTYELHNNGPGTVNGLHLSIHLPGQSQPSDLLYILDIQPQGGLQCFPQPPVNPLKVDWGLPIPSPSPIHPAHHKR
Sequence (P08514 891-1039 limits assumed, one chain of several): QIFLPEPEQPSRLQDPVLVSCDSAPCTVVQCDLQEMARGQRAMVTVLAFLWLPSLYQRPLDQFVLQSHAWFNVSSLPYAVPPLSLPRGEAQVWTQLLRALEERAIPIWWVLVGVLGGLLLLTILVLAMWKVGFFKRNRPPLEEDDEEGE
Assay: Affinity for platelet fibrinogen receptor, integrin alpha IIb/beta3

Field: example entries. Status: answers known.
>>> reading("CN1Cc2cc(C(=O)N3CCN(c4ccccc4)CC3)ccc2NC(CC(=O)O)C1=O (stereo not drawn)")
"> 100 µM"
>>> reading("CN1Cc2cc(C(=O)NCCc3nc4ccccc4[nH]3)ccc2NC(CC(=O)O)C1=O (stereo not drawn)")
"> 50 µM"

Kindly consider the entry below.
Challenge: What does the data say about its Ki? Entry: CN1Cc2cc(C(=O)Nc3nc4ccccc4[nH]3)ccc2NC(CC(=O)O)C1=O (stereo not drawn)
Response given: > 50 µM
